Values were extracted from patent US20020155519A1.

- System: human blood bacterium (HBB)
- Format: cell-based

Compound | effect on HBB growth in culture
[Fe] [iron] | stimulated
[Mn+2] [manganese] | stimulated

* * *

- System: human blood bacterium (HBB)
- Type: cell-based
- Condition Label: concentration not printed
Result Type: antibiotic sensitivity of HBB strains/isolates in culture

Smiles Data | Result
CC1(C)S[C@@H]2[C@H](NC(=O)COc3ccccc3)C(=O)N2[C@H]1C(=O)O | relatively sensitive
CC1(C)S[C@@H]2[C@H](NC(=O)Cc3ccccc3)C(=O)N2[C@H]1C(=O)O | relatively sensitive
